assayOverview: Pseudomonas biofilm growth suppression – PAO1 strain, BacTiter-Glo luminescence, LB-PBS, primary screen (AID 1144)
appliedConditions: P. aeruginosa PAO1 biofilm, 12 h, higher = more signal
# z-score values compiled below
Just the number, please, no unit attached.

Worked set:
C#CCN(C/C=C/c1ccccc1)[C@H](CO)c1ccccc1    -0.192
COCCOC(=O)N1C(=O)[C@@]2(c3ccccc31)[C@H](C(N)=O)[C@H]1C(=O)O[C@H](c3ccccc3)[C@H](c3ccccc3)N1[C@@H]2c1ccc(O)cc1    -0.166
CC[C@@H]1C=C(C(=O)O)[C@H](c2cccc3ccccc23)N1S(=O)(=O)c1ccc(C)cc1    0.235
COCCOC(=O)N1C(=O)[C@@]2(c3cc(C#CC4=CCCCC4)ccc31)[C@H](C(N)=O)[C@H]1C(=O)O[C@H](c3ccccc3)[C@H](c3ccccc3)N1[C@@H]2c1ccc(O)cc1    -1.29
COC(=O)[C@@]1(Cc2ccc(F)cc2)[C@H]2c3cc(C(=O)N(C)C)n(Cc4cc(C)n(C)n4)c3C[C@H]2CN1C(=O)c1ccccc1    -0.0119

The record that follows has no z-score shown yet.
Q. // Input: COCCCNC(=O)[C@@]1(Cc2ccccc2CN=[N+]=[N-])N=C(c2ccc(OCCCO)cc2)O[C@H]1c1ccccc1CN=[N+]=[N-] . Output its z-score only.
A. -1.5

* * *

assayOverview: plasmodial surface anion channel blockers, osmotic lysis – cell-based, P. falciparum Indochina, OD700, 1 h, primary screen (AID 1154)
appliedConditions: P. falciparum Indochina infected RBC osmotic lysis, called active from +8 up or from −8 down
Calls of active or inactive are those of the source.
Classes to choose from: active, inactive

Q. Which outcome did this test record for the molecule COc1cc2c(cc1O)C(c1cccs1)N(Cc1cccc(OC(F)(F)F)c1)CC2 (centres undefined) ?
A. active

* * *

assayOverview: probe aShh binding to arrayed compounds – biochemical, biotinylated probe, 635/667 nm fluorescence, primary screen (AID 1114);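 note: probe is biotin-labelled aShh protein from a stem cell growth factor screen; measures binding of labelled protein to compounds printed on the slide; score merges feature fluorescence at 667 nm with signal-to-noise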
appliedConditions: small-molecule microarray, higher = more signal
assayEndpoint: composite z-score
Just the number, please, no unit attached.

Worked set:
CC1CC/C=C\[C@H]2OC34C=CCN(Cn5nnc6ccccc65)C(=O)[C@H]3N(CCCCCO)C(=O)[C@@H]4C2C(=O)O1 (some centres undefined)    -0.283
OCCCC1=CC(C2CC2)N(Cc2cccc(OC(F)(F)F)c2)CC1 (centres undefined)    -0.321
CN(C)C(=O)[C@]1(Cc2ccccc2)N=C(c2ccc(OCCCO)cc2)O[C@@H]1c1ccccc1N=[N+]=[N-]    0.398

Q. // Input: COC(=O)[C@]1(CCC(=O)OC(C)(C)C)N=C(c2ccc(OCCCO)cc2)O[C@@H]1c1ccccc1 . Output its composite z-score only.
A. 0.04

* * *

assayOverview: growth of efflux-deficient E. coli DRC39 – strain DRC39, OD650, 24 h, E. coli filamentation inducers, primary screen (AID 1178);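 note: growth measured as culture turbidity by optical density at 650 nm; test concentration not given here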
appliedConditions: E. coli DRC39 acrAB, higher = more signal, called active from +8 up or from −8 down
assayEndpoint: z-score
Just the number, please, no unit attached.

Worked set:
COC(=O)[C@]1(Cc2ccccc2)N=C(c2ccc(OCCCO)cc2)O[C@@H]1c1ccccc1N=[N+]=[N-]    0.2
CCCNC(=O)[C@@H]1c2ccccc2C(=O)N(Cc2ccccc2OC)[C@H]1c1ccc(CO)cc1    0.324

Q. // Input: C=CCOC(=O)[C@H]1[C@@H]2C(=O)O[C@@H](c3ccccc3)[C@@H](c3ccccc3)N2[C@@H](c2ccc(OCCOC(=O)[C@@H]3C[C@@H]4C(=O)N5CCC[C@H]5C(=O)N4[C@@H]3c3cccc(OCCO)c3)cc2)[C@]12C(=O)Nc1ccc(I)cc12 . Output its z-score only.
A. 0.021
